Source listed as patent US4154967A.

- experimental details: physchem
- conditions used: ethanol-water
test readout: pKa
# answer = number (no unit)

For the compound Sc1cccc(Br)c1 , what pKa is on record?
6.8

For the compound O=C(S)c1ccccc1 , what pKa is on record?
6.3

For the compound Sc1cc(Cl)cc(Cl)c1 , what pKa is on record?
5.8

For the compound N#Cc1cccc(S)c1 , what pKa is on record?
6.3

For the compound O=[N+]([O-])c1cccc(S)c1 , what pKa is on record?
5.9

For the compound O=C(O)c1ccc(S)cc1 , what pKa is on record?
5.9

For the compound O=S(=O)(O)c1ccc(S)cc1 , what pKa is on record?
5.7

For the compound Sc1ccc(I)cc1 , what pKa is on record?
6.9

For the compound CC(=O)c1cccc(S)c1 , what pKa is on record?
6.9

For the compound Sc1c(Cl)c(Cl)c(Cl)c(Cl)c1Cl , what pKa is on record?
3.5

For the compound Sc1ccc(Br)cc1 , what pKa is on record?
7

For the compound O=[N+]([O-])c1ccc(S)c([N+](=O)[O-])c1 , what pKa is on record?
4

For the compound CS(=O)(=O)c1cccc(S)c1 , what pKa is on record?
5.9

For the compound O=C(O)c1ccccc1S , what pKa is on record?
5.6

For the compound Sc1cccc(I)c1 , what pKa is on record?
6.8

For the compound Fc1cccc(S)c1 , what pKa is on record?
6.8

For the compound Fc1c(F)c(F)c(S)c(F)c1F , what pKa is on record?
2.7

For the compound FC(F)(F)c1cc(S)ccc1Cl , what pKa is on record?
6.2
